Origin of measurements: the supplement of paper PMC10567573

The following variants are listed with their measured protein stability index values.
B1: FAM107A (parent)
chain: LQRVLEHRRRNQLIKKKKEELEAK

Variants of: B1
Assay: protein stability index of a GFP-peptide fusion (GPS, HEK-293T) (PSI 1-6); higher = more stable;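 note: lentivirally expressed fusions sorted by FACS into six bins by GFP to DsRed ratio, PSI derived from sequencing read proportions per bin multiplied by bin number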
Details: c terminus: a fixed tail appended
The answer should be a number; do not append a unit.

Problem: // protein stability index lookup, key: `H7Y`
Result: 1.69

Problem: Sample `R9F` — what was its protein stability index?
Result: 2.49

Problem: What value of measured protein stability index is listed for `R3K` ?
Result: 3.69

Others:
Problem: Fill in: protein stability index of `R10T` is ___
Result: 4.57

Problem: Give its protein stability index value. Item: `R9S`
Result: 4.03

Problem: For the variant `E19M` , what protein stability index is on record?
Result: 3.19

Problem: What does the record list as protein stability index for `A23I` ?
Result: 2.75

Problem: Returns the measured protein stability index for the input variant. Input: `E20W`
Result: 2.29

Problem: Given the variant `I14M` , what is its reported protein stability index?
Result: 4.54

Problem: protein stability index for `R3D` ?
Result: 4.5

Problem: I have this variant here, `E6D` , and I need its recorded protein stability index.
Result: 3.61

Problem: Please give the measured protein stability index for this variant: `R8K`
Result: 3.82

Problem: Please report the recorded protein stability index for `L13V` .
Result: 3.08
